src = patent US20110124703A1

Reported pIC50 for target or system MOS1 transposase (MBP-MOS1) (Drosophila mauritiana, UniProt Q7JQ07), by entry.
Formally, pIC50 is defined as -log10 of the concentration c, with c in mol/L.

Find the measured pIC50 of O=C(Nc1ccccc1C(=O)O)c1cccc(NC(=O)C(c2ccccc2)c2ccccc2)c1 [Compound 9, reference compound] and report it.
3.82

Quickly give me recorded pIC50 for O=C(O)C(Cc1ccccc1)N1C(=O)C(=CC=Cc2ccccc2)SC1=S (centres unmarked) [Compound 10, reference compound]
4.46

----------
Assay system: HIV-1 integrase (Human immunodeficiency virus type 1 group M subtype B)
Construct: made in house
Protocol text: 3′ maturation and HIV-1 strand transfer tests
Format: biochemical
Experimental setup: read-out: IC50 3′ maturation
Measure name: IC50 (µM)
Use µM as the unit, but write only the number.

Could you please provide reported IC50 for O=C/C=C/c1ccc(C2=C(c3ccc(/C=C/C=O)o3)C(=O)N(Cc3ccccc3)C2=O)o1 ? Thanks!
70
